molecular target: Adenosine A2A receptor (Homo sapiens, UniProt P29274); test: Adenosine A2A receptor competitive binding assay (Tag-lite HTRF); details: Tag-lite adenosine A2A receptor ligand binding, 2 h room temperature; values separated by / are repeat determinations
Sequence (P29274 whole entry): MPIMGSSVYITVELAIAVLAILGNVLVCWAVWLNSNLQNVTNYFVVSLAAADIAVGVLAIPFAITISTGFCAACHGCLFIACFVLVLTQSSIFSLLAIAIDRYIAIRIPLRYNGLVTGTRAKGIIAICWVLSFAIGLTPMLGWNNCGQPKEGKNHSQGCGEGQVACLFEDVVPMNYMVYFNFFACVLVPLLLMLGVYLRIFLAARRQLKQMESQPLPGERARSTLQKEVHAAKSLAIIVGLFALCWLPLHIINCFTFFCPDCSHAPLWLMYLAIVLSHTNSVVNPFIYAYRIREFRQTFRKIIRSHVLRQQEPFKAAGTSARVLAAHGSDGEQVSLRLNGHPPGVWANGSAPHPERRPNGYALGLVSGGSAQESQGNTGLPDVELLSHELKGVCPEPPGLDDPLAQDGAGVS
reported_property: IC50 (nM)

>  <entry_smiles>
Cc1cc(-c2c(O[C@H](C)CO)nc(N)nc2-c2ccc(F)cc2)cc(C(F)F)n1

>  <IC50, nM>
25

$$$$
>  <entry_smiles>
Cc1cc(-c2c(OCC(=O)NC3CCN(C)CC3)nc(N)nc2-c2ccc(F)cc2)cc(C(F)F)n1

>  <IC50, nM>
1210

$$$$
>  <entry_smiles>
Cc1cc(-c2c(OCCNc3ccccn3)nc(N)nc2-c2ccc(F)cc2)cc(C(F)F)n1

>  <IC50, nM>
2.4

$$$$
>  <entry_smiles>
CCN(CC)C(=O)[C@H](C)Oc1nc(N)nc(-c2ccccc2)c1-c1cc(C)nc(C(F)(F)F)c1

>  <IC50, nM>
900

$$$$
>  <entry_smiles>
Cc1cc(-c2c(OC[C@@H](O)CO)nc(N)nc2-c2ccc(F)cc2)cc(C(F)F)n1

>  <IC50, nM>
13

$$$$

a = Cc1cc(-c2c(OCCN(C)c3ccc(S(C)(=O)=O)cn3)nc(N)nc2-c2ccc(F)cc2)cc(C(F)F)n1
b = Cc1cc(-c2c(OCC(C)(C)O)nc(N)nc2-c2ccc(F)cc2)cc(C(F)F)n1
c = Cc1cc(-c2c(OCCN3CCN(C4COC4)CC3)nc(N)nc2-c2ccc(F)cc2)cc(C(F)F)n1
d = COCCOc1nc(N)nc(-c2ccc(F)cc2)c1-c1cc(C)nc(C(F)F)c1
e = Cc1cc(-c2c(CO)nc(N)nc2-c2ccccc2)cc(C(F)(F)F)n1
Rank items: key IC50, increasing. # the answer lists labels in the order requested
d, b, e, a, c
(d: 3.7 nM, b: 15 nM, e: 52 nM, a: 79 nM, c: 120 nM)

P = Cc1cc(-c2c(OCC(=O)N(C)C3COC3)nc(N)nc2-c2ccc(F)cc2)cc(C(F)F)n1
Q = Cc1cc(-c2c(OCCc3ccc(C#N)cc3)nc(N)nc2-c2ccc(F)cc2)cc(C(F)F)n1
R = Cc1cc(-c2c(OCc3nn(C)cc3C(C)C)nc(N)nc2-c2ccc(F)cc2)cc(C(F)F)n1
Order by IC50, ascending. Please, when replying, give the labels in the order that was requested.
R, P, Q
